System: MALME-3M melanoma
Assay: NCI-60 one-dose screen, 48 h (100 = growth as untreated, 0 = no growth, -100 = all killed)
Details: 10 µM
Experimental: Cells are grown in 96 well plates and exposed to the test compound for 48 hours. Compounds are tested at a single concentration, which is 10^-5 M for most compounds. The reported endpoint is percent growth (GI% or GIPRCNT), where numbers from 0 - 100% represent growth inhibition, and numbers from -100% - 0 represent cell death. For example, a value of 40 represents 60% growth inhibition. A value of 0 means no net growth occurred over the course of the experiment. […]
This is part of a sample that, as a whole, favours compounds with a hit. Of some 83,000 tested, about 20% had one in any assay.
Quick reference for growth among some compounds
Write it as a number; the unit % goes unstated.

Some compounds with known growth results, for comparison:
>>> df
                                   compound  observed_measurement
0  Cc1ccc(NCC(=O)Nn2c(COc3ccccc3)nc3ccccc3c2=O)cc1                  80.8
1  Cc1cc(=O)oc2cc(OCCCCOc3ccc(/C=C/C(=O)Nc4ccccc4[N+](=O)[O-])cc3)ccc12                   101
2  COc1ccc(CCN2C(=O)/C(=C/c3csc(C#N)n3)SC2=S)cc1OC                  2.58
3  Cn1cc(-c2cc(N)n3nc(-c4c[nH]c5ccc(Br)cc45)cc3n2)c2cc(Br)cnc21                 -92.1
4     C=C(c1ccc(OC)c(N)c1)c1cc(C)nc2ccccc12                  49.9

For the next question, use this compound.
Fill in growth for record Nc1cc(-c2cccc(C(=O)NCc3ccc4c(c3)OCO4)c2)ccn1
99.3

###

Test system: SF-268 CNS
Experiment: NCI-60 one-dose screen, 48 h (100 = growth as untreated, 0 = no growth, -100 = all killed)
Settings: 10 µM
About 83,000 compounds went through this panel and 20% of them were active in at least one assay; those are over-represented in the sample as a whole.
experimental-readout: growth (%)
Write the value in % as a bare number.

The cases that follow already have their growth on record.
In [3]: df
Out[3]:
                            molecule_smiles  system_under_test  experimental_readout  observed_measurement
0  Cc1cc(C)nc(SCC(=O)Nc2ccc(S(N)(=O)=O)cc2)n1         SF-268 CNS                growth                   125
1  O/N=C(\CSc1nnc(-c2c[nH]c3ccccc23)n1-c1ccccc1)c1ccc(Br)cc1         SF-268 CNS                growth                 -55.6
2  CC1=C2C(=C[C@@](C)(COCOCCCl)[C@@H]2O)C(=O)[C@](C)(O)C12CC2         SF-268 CNS                growth                 -9.66
3  CCCCCCCCCCCCCCCCCCCC(=O)NCCc1c[nH]c2ccc(O)cc12         SF-268 CNS                growth                  91.6

Switching to the query record.
Provide growth, tested on SF-268 CNS, for Cc1noc2c(Cc3ccccc3)nn(CC(=O)N/N=C/c3ccc(F)cc3)c(=O)c12 .
62.6

###

// growth lookup, one value per entry
System: SNB-75 CNS
Assay: NCI-60 one-dose screen, 48 h (100 = growth as untreated, 0 = no growth, -100 = all killed)
Settings: 10 µM
About 83,000 compounds went through this panel and 20% of them were active in at least one assay; those are over-represented in the sample as a whole.
Answer with a number only, understood to be in %.

The cases that follow already have their growth on record.
In [3]: df
Out[3]:
                            molecule_smiles  observed_measurement
0  CCCCCCCCCCCCCCCCCCCC(=O)NCCc1c[nH]c2ccc(OC(=O)CCCC(=O)OCCOOCCOOCCOOCCOOCCOOCCOOCCOOCCOOCCOOCCOOCCOOCCOC)cc12                   110
1  O=C(NO)c1ccc(Cn2ccc3c(Nc4ccccc4)ncnc32)cc1                  44.3

Dear colleague, please send me the reported growth for CC1(C)CC[C@]2(C(=O)O)CC[C@]3(C)C(=CC[C@@H]4[C@@]5(C)C/C(=C/c6ccncc6)[C@H](O)C(C)(C)[C@@H]5CC[C@]43C)[C@@H]2C1 when you can.
35.5

Quick one: give measured growth for CN1C(=O)/C(=C/c2nccs2)SC1=S
66.4

###

Tested on: K-562 leukemia
Experiment: NCI-60 one-dose screen, 48 h (100 = growth as untreated, 0 = no growth, -100 = all killed)
Details: 10 µM
The panel holds about 83,000 compounds, 20% with a hit somewhere; the sample as a whole holds those more often.
experimental-readout: growth (%)
Unit % implied. Number only.

In [3]: df
Out[3]:
                                   compound  system_under_test  unit_text  observed_measurement
0  CC(C)C1=C[C@@]23CC[C@@H]4[C@](C)(CCC[C@]4(C)C(=O)NCc4ccccc4)[C@H]2C[C@@H]1[C@H]1C(=O)OC(=O)[C@H]13     K-562 leukemia          %                  21.5
1  CCOC(=O)CNC(=O)CN(Cc1ccccc1)C(=O)[C@@]1(C)CCC[C@]2(C)[C@H]3CC4C(C(C)C)=C[C@]3(CC[C@H]21)[C@@H]1C(=O)CCC(=O)[C@H]41     K-562 leukemia          %                  25.3
2  COc1ccc(C(=O)/C=C/c2cc(C(F)(F)F)cc(C(F)(F)F)c2)cc1S(N)(=O)=O     K-562 leukemia          %                  8.85
3  COc1ccc(-c2ccc(/C=N/NC(=O)c3[nH]c4ccc(Br)cc4c3-c3ccccc3)o2)cc1     K-562 leukemia          %                  10.5

Give growth only, for O=C1Nc2cc(Cl)ccc2/C1=C/c1cccc(OCc2ccccc2)c1 , using K-562 leukemia data.
5.55

State recorded growth with K-562 leukemia, entry COc1ccc(CN2[C@H](C(=O)NCc3ccc(C(=O)NO)cc3)Cc3c([nH]c4ccccc34)[C@H]2C2CC2)cc1 , no comment.
26.2

Give growth; test system K-562 leukemia; compound CC1(c2ccccc2)NC(=O)N(CC(=O)Nc2ccc(C(=O)/C=C/c3ccc(Cl)cc3)cc2)C1=O (stereo not drawn)
2.06

State growth (K-562 leukemia) of COc1ccc2c3nc4cc(C)c(C)cc4nc3n(CCN(C)C)c2c1 .
3.09

Enter recorded growth with K-562 leukemia for O=C(CNc1nc(-c2ccccc2)cs1)Nc1ccc([N+](=O)[O-])cc1 here.
9.52

Send back K-562 leukemia growth of NS(=O)(=O)c1ccc(NC(=O)CSc2ccc(-c3ccc(Cl)cc3)nn2)c(Br)c1 only.
74.6

Write growth of C=C1CCC2C3(C)COC(c4c(F)cccc4F)OC3CCC2(C)C1C/C=C1/C(=O)OCC1O (stereo not drawn) ; system used: K-562 leukemia
13.4

// output growth; input CCOC(=O)C1=C(N)N(c2ccccc2)C2=C(C(=O)CC(C)(C)C2)C1c1ccccc1OC (stereo not drawn) ; system K-562 leukemia
97.2

State, for K-562 leukemia, measured growth of the compound listed here: O=C1Nc2cc(Cl)ccc2/C1=C/c1ccc(OCc2ccc(Br)cc2F)cc1
9.64

###

Test system: SK-MEL-2 melanoma
Assay: NCI-60 one-dose screen, 48 h
Settings: 10 µM
Description: Growth inhibition of the SK-MEL-2 human tumor cell line is measured as a screen for anti-cancer activity. Cells are grown in 96 well plates and exposed to the test compound for 48 hours. Compounds are tested at a single concentration, which is 10^-5 M for most compounds. The reported endpoint is percent growth (GI% or GIPRCNT), where numbers from 0 - 100% represent growth inhibition, and numbers from -100% - 0 represent cell death. For example, a value of 40 represents 60% growth inhibition. […]
The panel holds about 83,000 compounds, 20% with a hit somewhere; the sample as a whole holds those more often. Activity calls are given as the source filed them. Rule for the calls: active = growth percent below 10; inactive = the rest.
Reply using exactly one outcome from TRUE (active), FALSE (inactive)

Could you check what this test reported for CNC(=O)c1cc(-c2ccc(NC(=O)Nc3ccc(C)cc3)cc2)nc2cccnc12 ?
FALSE

Please state the recorded outcome for this molecule: COc1ccc(CCN2C(=O)/C(=C/c3csc(C#N)n3)SC2=S)cc1
TRUE

Returns: the outcome recorded for COC1=C[C@@]23CCC(=O)N2CCc2cc4c(cc2[C@H]3[C@H]1OC(=O)C(C)(C)O)OCO4 in this assay.
FALSE

Which result was noted for this molecule in the test: CCCSc1nc(NC2CC2)c(C#N)c(-c2ccc(OC)cc2)n1
FALSE

Fill in: this test's call for COc1cc(/C=C/C(=O)c2ccc(NC(=O)CN3C(=O)NC(C)(c4ccccc4)C3=O)cc2)cc(OC)c1OC (stereo not given) is ___
FALSE

Dear colleague, could you share the recorded outcome for O=C(CNc1nc(-c2ccccc2)cs1)Nc1ccccc1 when you have a moment?
TRUE

// outcome(item) with item = Cc1noc2c(Cc3ccccc3)nn(CC(=O)N/N=C/c3ccc(Cl)cc3)c(=O)c12
FALSE

Please share the test call associated with C=C(c1ccc(OC)c(N)c1)c1cc(C)nc2ccccc12 .
TRUE

Answer briefly: the call reported for Cc1cccc(NC(=O)CSc2nc3ccc(F)cc3c(=O)n2-c2ccc(Cl)cc2)c1C in this assay.
FALSE

Which outcome was assigned to O=C(Cn1cc(CSc2nnc3oc4ccccc4n23)nn1)Nc1ccc(Br)cc1 in this test?
FALSE
